Origin of the recorded values: PubChem BioAssay (NCI)

test system: NCI/ADR-RES ovarian; experiment: NCI-60 one-dose screen, 48 h (100 = growth as untreated, 0 = no growth, -100 = all killed); conditions: 10 µM unless noted
About 83,000 compounds went through this panel and 20% of them were active in at least one assay; those are over-represented in the sample as a whole.
value type: growth (%)
Answers are plain numbers, in %.

Previously resolved entries follow.
[
  {
    "compound": "COc1ccc(NC2=C(Cl)C(=O)c3nc(C)ccc3C2=O)cc1OC",
    "value type": "growth",
    "result value": 94.7
  },
  {
    "compound": "Cc1ccc(CSc2nc(-c3ccc(Cl)cc3)c(C#N)c(N3CCOCC3)n2)cc1",
    "value type": "growth",
    "result value": 94.8
  },
  {
    "compound": "N=c1c2cc(-c3ccccc3)oc2ncn1/N=C/c1ccc(Br)cc1",
    "value type": "growth",
    "result value": 22.3
  }
]

Below are some compounds; for each one, tell me its growth.
1. Cn1ccnc1C(=O)/C=C/C=C/c1ccc(C(=O)Nc2ccc(F)cc2)cc1
2. O=C(CCn1c[n+](CC(=O)c2ccc(F)cc2)c2ccccc21)Nc1cccc2cccnc12
3. CCOC(=O)C1=NNC(c2ccc(Cl)cc2)C1C(=O)N1C(=S)NC(=O)C1CC(C)C (centres undefined)
4. Cc1ccc2c(c1)C13C(=C2Br)CCCN1C(=O)c1ccccc13 (centres undefined)
5. O=C(CN1CCN(c2cc(=O)n(-c3ccccc3)c3ccccc23)CC1)Nc1ccc(F)cc1
6. Cc1ccc(-n2c(/C=C3\C(=O)Nc4ccccc43)ccc2CO)cc1

26.7
96.5
99.9
88.4
64.3
55.7

Below are some compounds; for each one, tell me its growth.
1. COc1ccc2c(c1)c(CC(=O)[Se]CC#N)c(C)n2C(=O)c1ccc(Cl)cc1
2. COC(=O)c1[nH]nc2c1C1(C(=O)c3cccc4cccc1c34)C(C#N)=C(N)O2 (centres undefined)
3. CC(=O)c1ccc(Nc2nc(SCC(C)C)nc(-c3ccc(F)cc3)c2C#N)cc1
4. COc1ccc(-c2nc3cc(Cl)c(Cl)cc3n2CC(=O)N=Nc2c(O)[nH]c3ccc(OC)cc23)cc1

-13.8
106
110
30.9

// lookup growth for `COc1ccc(-n2c(/C=C3\C(=O)Nc4ccccc43)ccc2CO)cc1`
102
